The values you see were collected from ChEMBL document CHEMBL4325829.

- Test system: HCT-116
- experimental-protocol: Antiproliferative activity against human HCT116 cells after 72 hrs by MTS assay
- Assay type: functional
- test-parameters: Homo sapiens, HCT-116, 72 h
// map GI50 to label using lowest = under 30 nM, middle = from 30 nM up to 400 nM, highest = 400 nM and over

record-smiles: C=C(c1ccc(OC)c(OCCCCCCC(=O)OCC)c1)c1cc(OC)c(OC)c(OC)c1
label: highest
//
record-smiles: C=C(c1ccc(OC)c(C#CCCCC(=O)OCC)c1)c1cc(OC)c(OC)c(OC)c1
label: highest
//
record-smiles: C=C(c1cc(OC)c(OC)c(OC)c1)c1ccc(OC)c(/C=C/C(=O)NO)n1
label: middle
//
record-smiles: C=C(c1ccc(OC)c(C#CCCC(=O)NO)c1)c1cc(OC)c(OC)c(OC)c1
label: lowest
//
record-smiles: C=C(c1ccc(OC)c(OCC(=O)NO)c1)c1cc(OC)c(OC)c(OC)c1
label: lowest
//
record-smiles: C=C(c1cc(OC)c(OC)c(OC)c1)c1ccc2c(c1)c(/C=C/C(=O)NO)cn2C
label: lowest
//
record-smiles: COc1ccc(Cn2ccc3ccc(C(=O)NO)cc32)cc1
label: highest
//
record-smiles: C=C(c1ccc(OC)c(/C=C/C(=O)OC)c1)c1cc(OC)c(OC)c(OC)c1
label: middle
//
record-smiles: C=C(c1ccc(OC)c(OCC(=O)OCC)c1)c1cc(OC)c(OC)c(OC)c1
label: middle
//
record-smiles: C=C(c1ccc(OC)c(C#CCCC(=O)OCC)c1)c1cc(OC)c(OC)c(OC)c1
label: highest
//
record-smiles: C=C(c1cc(OC)c(OC)c(OC)c1)c1ccc(OC)c(C(=O)NO)c1
label: middle
//
record-smiles: C=C(c1cc(OC)c(OC)c(OC)c1)c1ccc(OC)cc1/C=C/C(=O)NO
label: lowest
//
record-smiles: C=C(c1ccc(OC)c(C#CCCCC(=O)NO)c1)c1cc(OC)c(OC)c(OC)c1
label: middle
//
record-smiles: C=C(c1cc(OC)c(OC)c(OC)c1)c1ccc(OC)c(C(=O)Nc2ccccc2N)c1
label: middle
//
record-smiles: C=C(c1ccc(OC)c(O)c1)c1cc(OC)c(OC)c(OC)c1
label: lowest
//
record-smiles: C=C(c1ccc(OC)c(OCCCC(=O)OCC)c1)c1cc(OC)c(OC)c(OC)c1
label: highest
//
record-smiles: C=C(c1cc(OC)c(OC)c(OC)c1)c1ccc2c(c1)cc(C(=O)NO)n2C
label: middle
//
record-smiles: C=C(c1ccc(OC)c(OCCCCCCC(=O)NO)c1)c1cc(OC)c(OC)c(OC)c1
label: highest
//
record-smiles: C=C(c1ccc(OC)c(/C=C/C(=O)NO)c1)c1cc(OC)c(OC)c(OC)c1
label: lowest
//
record-smiles: C=C(c1cc(OC)c(OC)c(OC)c1)c1ccc2c(c1)cc(/C=C/C(=O)NO)n2C
label: lowest
//
record-smiles: C=C(c1ccc(OC)c(OCCCC(=O)NO)c1)c1cc(OC)c(OC)c(OC)c1
label: highest

###

- measured-target: Histone deacetylase 11 (Homo sapiens, UniProt Q96DB2)
- Sequence (Q96DB2 whole entry): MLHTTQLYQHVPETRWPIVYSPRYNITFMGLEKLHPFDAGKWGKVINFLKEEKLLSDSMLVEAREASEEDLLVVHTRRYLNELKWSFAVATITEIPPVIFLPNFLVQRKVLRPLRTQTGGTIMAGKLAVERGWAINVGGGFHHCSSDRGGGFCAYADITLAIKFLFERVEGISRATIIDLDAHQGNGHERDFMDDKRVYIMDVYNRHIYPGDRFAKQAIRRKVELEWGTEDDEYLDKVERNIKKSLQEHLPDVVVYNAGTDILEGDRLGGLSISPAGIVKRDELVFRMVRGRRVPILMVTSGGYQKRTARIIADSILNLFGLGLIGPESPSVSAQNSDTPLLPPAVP
- experimental-protocol: Inhibition of human recombinant HDAC11 after 30 mins using fluorogenic substrate by fluorimetric assay
- test-parameters: read-out: IC50

record-smiles: C=C(c1ccc(OC)c(/C=C/C(=O)NO)c1)c1cc(OC)c(OC)c(OC)c1
measured-target: Histone deacetylase 11 (Homo sapiens, UniProt Q96DB2)
IC50: 10 µM

record-smiles: C=C(c1cc(OC)c(OC)c(OC)c1)c1ccc2c(c1)c(/C=C/C(=O)NO)cn2C
measured-target: Histone deacetylase 11 (Homo sapiens, UniProt Q96DB2)
IC50: 5 µM

record-smiles: C=C(c1cc(OC)c(OC)c(OC)c1)c1ccc(OC)cc1/C=C/C(=O)NO
measured-target: Histone deacetylase 11 (Homo sapiens, UniProt Q96DB2)
IC50: 8 µM
